- Target entity: Grb2 SH2 (UniProt P62993)
- Sequence (P62993 whole entry, looked up, the tested form may be a part): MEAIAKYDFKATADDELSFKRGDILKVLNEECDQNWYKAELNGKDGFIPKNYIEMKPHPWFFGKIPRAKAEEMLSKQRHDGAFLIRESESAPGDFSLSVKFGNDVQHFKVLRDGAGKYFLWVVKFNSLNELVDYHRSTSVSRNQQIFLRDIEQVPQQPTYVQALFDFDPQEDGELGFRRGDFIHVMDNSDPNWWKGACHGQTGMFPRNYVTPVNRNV
- Assay text: SH2 binding enrichment of the phosphorylated peptide, bacterial display (enrichment ratio); higher = better substrate or ligand; peptides without Tyr show the background;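 note: peptide library displayed on the E. coli surface as eCPX fusions, selected cells deep-sequenced, score is each peptide's frequency after selection divided by its frequency in the input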
Parameter: SH2 binding enrichment
Numbers only.

Completed entries (count: 10):
Ask: Data request, read-out SH2 binding enrichment, for KDQGIYEDFVE [MYL6_Y86_T85I_YF]
Result: 1.05

Ask: Entry EASGIYVKSII [PATJ_Y396] : reported SH2 binding enrichment = ?
Result: 0.994

Ask: Field request: SH2 binding enrichment | item: VVKLTYNENDN [CAMKK2_Y183_A182T]
Result: 0.815

Ask: Please give the measured SH2 binding enrichment for this sequence: DLDLTSIFPNI [PTEN_Y27_Y27S_YF]
Result: 0.722

Ask: // returns reported SH2 binding enrichment for input CNPRRYPVLMS [OR2T1_Y182_L180R]
Result: 1.1

Ask: Look up SH2 binding enrichment: DAKTIYDFTDT [PDK1_Y136_A134T]
Result: 0.748

Ask: Requested field: SH2 binding enrichment. Item: LSSEMYVKSYT [F5_Y2149]
Result: 0.89

Ask: # lookup: SH2 binding enrichment of GFITSYREEEQ
Result: 0.681

Ask: I have this sequence here, ISIFRYAKGQP [MPZ_Y82_H81R] , and I need its recorded SH2 binding enrichment.
Result: 0.843

Ask: I would be grateful if you could share the reported SH2 binding enrichment for KLADIYQAELR [GFAP_Y116_V115I] .
Result: 1.01

For each of the sequences below, note its SH2 binding enrichment.
1. EQKKYYNAMKK [SCN5A_Y1495]
2. EKEKEYMLPLD [DNM2_Y563_K562E]
3. RLLRGYDQLAY [HLA-C_Y137_S140L]

Result:
1. 0.818
2. 0.834
3. 1.1

Lab note: each sequence below needs its SH2 binding enrichment filled in.
1. GEIQEYGAPSD [ABCC1_Y1508]
2. RRAKGYPINLY [ITGB2_Y125_D128N]
3. NREGVYTVSAP [TGFBI_Y537_F540S]
4. GLVFLYVEKNQ [PRELP_Y156_M157V]

Result:
1. 0.745
2. 0.764
3. 0.834
4. 1.12

I have 4 sequences here; please give me SH2 binding enrichment for each one.
1. ISDEAYVMAGV [ERBB2_Y772_L768S]
2. GGEAIYAAPFA [Abl_opt_1995]
3. RRIHSHRGHLW [VHL_Y112_Y112H]
4. PVLSLYASGRT [ACTA1_Y145_A140P]

Result:
0.811
0.778
0.906
0.841

For every item below, please supply its SH2 binding enrichment.
1. QDGFSYLSRQM [LDLR_Y847_P848L_YF]
2. VIDGKYAFKPK [GTF2E2_Y137]
3. GVLKEYGVKVL [CPS1_Y529]
4. NSFKYYMSDDI [ATRX_Y204_C200S]
5. TINPIHEHVGY [CHN1_Y143_Y143H]

Result:
0.983
0.873
0.863
0.943
0.823

Give SH2 binding enrichment for all sequences that follow.
1. GGSSPYSRRLP [CDK13_Y351]
2. RLLVVYPSTQR [HBB_Y36_W38S]

Result:
1: 0.709; 2: 2.08

Please give SH2 binding enrichment, item by item, for the list that follows.
1. GVTLLCFGRFN [ADGRD1_Y85_Y85C_YF]
2. SDPIIYTLENI [ADGRE1_Y534]
3. TAGFIYEKWEI [TEC_Y360_S359I]

Result:
1. 0.922
2. 0.936
3. 0.794

Ask: Please report the recorded SH2 binding enrichment for EIIPFYGMSTY [FNDC3B_Y175] .
Result: 0.742
